Biological target: HLA-B*44:02
Assay: IEDB peptide-MHC binding, purified MHC/direct/fluorescence; filed as Kd, often an IC50 or EC50 that approximates it; bounds were set here for any values at or beyond the usual limits of such assays
Conditions: source organism: Salmonella enterica

[
  {
    "Chain": "LLQGVPFHV",
    "Kd": "≥ 20 µM"
  }
]

----------
Biological target: HLA-B*57:01
Assay: IEDB peptide-MHC binding, purified MHC/direct/fluorescence; filed as Kd, often an IC50 or EC50 that approximates it; bounds were set here for any values at or beyond the usual limits of such assays
Details: source organism: Crocodilepox virus
Quantity name: Kd

[
  {
    "Chain": "VVARLGVPY",
    "Result value": "≥ 20 µM"
  }
]

----------
Reported values of Kd for individual entries
Biological target: HLA-A*02:01
Experiment: IEDB peptide-MHC binding, purified MHC/competitive/radioactivity; filed as Kd, often an IC50 or EC50 that approximates it; bounds were set here for any values at or beyond the usual limits of such assays
Details: source organism: Vaccinia virus WR
Quantity name: Kd (nM)

[
  {
    "Chain": "NTYLFNILY",
    "Unit label": "nM",
    "Relation": "=",
    "Result value": 946
  },
  {
    "Chain": "YLLFASMGFK",
    "Unit label": "nM",
    "Relation": "=",
    "Result value": 2570
  },
  {
    "Chain": "TLNHVLALK",
    "Unit label": "nM",
    "Relation": "≥",
    "Result value": 78100
  },
  {
    "Chain": "LPRPDTRHL",
    "Unit label": "nM",
    "Relation": "≥",
    "Result value": 78100
  }
]

----------
Molecular target: HLA-B*51:01
Experiment: IEDB peptide-MHC binding, purified MHC/competitive/fluorescence; filed as Kd, often an IC50 or EC50 that approximates it; bounds were set here for any values at or beyond the usual limits of such assays
Conditions: source organism: Mammarenavirus lassaense

[
  {
    "Chain": "VPHVIEEVM",
    "Experimental system": "HLA-B*51:01",
    "Kd": "≥ 20 µM"
  }
]

----------
Biological target: HLA-A*26:02
Assay: IEDB peptide-MHC binding, purified MHC/direct/fluorescence; filed as Kd, often an IC50 or EC50 that approximates it; bounds were set here for any values at or beyond the usual limits of such assays
Settings: source organism: Escherichia coli O157:H7 str. EC869
Quantity name: Kd

[
  {
    "Chain": "ETIGLVRAL",
    "Result value": "≤ 1 nM"
  }
]

----------
Target: HLA-B*58:01
Test: IEDB peptide-MHC binding, purified MHC/competitive/fluorescence; filed as Kd, often an IC50 or EC50 that approximates it; bounds were set here for any values at or beyond the usual limits of such assays
Settings: source organism: Burkholderia orbicola
pKd: −log10 of the molar value.

[
  {
    "Chain": "ASAAHLAAY",
    "Experimental system": "HLA-B*58:01",
    "pKd": 5.90
  }
]

----------
Molecular target: HLA-B*08:02
Assay: IEDB peptide-MHC binding, purified MHC/direct/fluorescence; filed as Kd, often an IC50 or EC50 that approximates it; bounds were set here for any values at or beyond the usual limits of such assays
Conditions: source organism: Vibrio parahaemolyticus AQ3810
pKd: −log10 of the molar value.

[
  {
    "Chain": "LVAPHMAMM",
    "pKd": "≤ 4.70"
  }
]
